Test system: HEL
protocol summary: Minimum cytotoxic concentration required to alter microscopically detectable HEL cell morphology
Type: functional
measurement parameters: Homo sapiens
Below, each entry is listed with its recorded MCC.

Would you please look over these solved cases?
C=CCCCCCCc1cc2cn([C@H]3C[C@H](O)[C@@H](CO)O3)c(=O)nc2o1 :: > 200 µM
C=CCCCCc1cc2cn([C@H]3C[C@H](O)[C@@H](CO)O3)c(=O)nc2o1 :: > 200 µM
CCCCCCc1cc2cn([C@H]3C[C@H](O)[C@@H](CO)O3)c(=O)nc2o1 :: > 50 µM
C#CCCCCc1cc2cn([C@H]3C[C@H](O)[C@@H](CO)O3)c(=O)nc2o1 :: > 200 µM
C#CCCCc1cc2cn([C@H]3C[C@H](O)[C@@H](CO)O3)c(=O)nc2o1 :: > 200 µM
C=CCCCCCCCCc1cc2cn([C@H]3C[C@H](O)[C@@H](CO)O3)c(=O)nc2o1 :: > 50 µM

Sample `C#CCCCCCc1cc2cn([C@H]3C[C@H](O)[C@@H](CO)O3)c(=O)nc2o1` ; MCC observed: > 200 µM

Sample `C#CCCCCCCc1cc2cn([C@H]3C[C@H](O)[C@@H](CO)O3)c(=O)nc2o1` ; MCC observed: > 200 µM

Sample `C=CCCCc1cc2cn([C@H]3C[C@H](O)[C@@H](CO)O3)c(=O)nc2o1` ; MCC observed: > 200 µM
